ASSAY_TEXT: Partition coefficient, logD of the compound
Format: physicochemical
CONDITIONS: octanol/water
Measured logD, listed per entry for reference.

STRUCTURE_NOTATION: CC(=O)O[C@@H](C)CCC(=O)N[C@@H]1C[C@H](C)[C@H](C/C=C(C)/C=C/[C@H]2OCC[C@@]3(CO3)[C@@H]2O)O[C@@H]1C
logD: 3.1
--
STRUCTURE_NOTATION: CC(=O)O[C@@H](C)/C=C\C(=O)N[C@@H]1C[C@H](C)[C@H](C/C=C(C)/C=C/[C@H]2OCC[C@@]3(CO3)[C@@H]2O)O[C@@H]1C
logD: 3.4
--
STRUCTURE_NOTATION: CC(=O)O[C@@H](C)/C=C/C(=O)N[C@@H]1C[C@H](C)[C@H](C/C=C(C)/C=C/[C@H]2OCC[C@@]3(CO3)[C@@H]2O)O[C@@H]1C
logD: 3.2
--
STRUCTURE_NOTATION: CO[C@]1(C)C[C@@]2(CO2)[C@H](O)[C@@H](/C=C/C(C)=C/C[C@@H]2O[C@H](C)[C@H](NC(=O)/C=C\[C@H](C)OC(C)=O)C[C@@H]2C)O1
logD: 3.8
--
STRUCTURE_NOTATION: CC(=O)O[C@@H](C)/C=C(/C)C(=O)N[C@@H]1C[C@H](C)[C@H](C/C=C(C)/C=C/[C@H]2OCC[C@@]3(CO3)[C@@H]2O)O[C@@H]1C
logD: 3.6

----------
Measured remaining at 1 h, listed per entry for reference.
ASSAY_TEXT: Metabolic stability in mouse liver microsome assessed as parent compound remaining measured at 60 mins
Format: ADME
CONDITIONS: liver microsomes, read-out: Stability

STRUCTURE_NOTATION: CC(=O)O[C@@H](C)/C=C\C(=O)N[C@@H]1C[C@H](C)[C@H](C/C=C(C)/C=C/[C@H]2OCC[C@@]3(CO3)[C@@H]2O)O[C@@H]1C
remaining at 1 h, %: 0.1

STRUCTURE_NOTATION: CC(=O)O[C@@H](C)/C=C(/C)C(=O)N[C@@H]1C[C@H](C)[C@H](C/C=C(C)/C=C/[C@H]2OCC[C@@]3(CO3)[C@@H]2O)O[C@@H]1C
remaining at 1 h, %: 0

STRUCTURE_NOTATION: CC(=O)O[C@@H](C)CCC(=O)N[C@@H]1C[C@H](C)[C@H](C/C=C(C)/C=C/[C@H]2OCC[C@@]3(CO3)[C@@H]2O)O[C@@H]1C
remaining at 1 h, %: 0

STRUCTURE_NOTATION: CC(=O)O[C@@H](C)/C=C/C(=O)N[C@@H]1C[C@H](C)[C@H](C/C=C(C)/C=C/[C@H]2OCC[C@@]3(CO3)[C@@H]2O)O[C@@H]1C
remaining at 1 h, %: 0

STRUCTURE_NOTATION: CO[C@]1(C)C[C@@]2(CO2)[C@H](O)[C@@H](/C=C/C(C)=C/C[C@@H]2O[C@H](C)[C@H](NC(=O)/C=C\[C@H](C)OC(C)=O)C[C@@H]2C)O1
remaining at 1 h, %: 0

----------
ASSAY_TEXT: Metabolic stability in human liver microsome assessed as parent compound remaining measured at 10 mins
Type: ADME
CONDITIONS: liver microsomes, read-out: Stability
Binarize remaining at 10 min at 1%; below is YES, at or above is NO.

STRUCTURE_NOTATION: CC(=O)O[C@@H](C)/C=C/C(=O)N[C@@H]1C[C@H](C)[C@H](C/C=C(C)/C=C/[C@H]2OCC[C@@]3(CO3)[C@@H]2O)O[C@@H]1C
ANSWER_LABEL: YES
//
STRUCTURE_NOTATION: CO[C@]1(C)C[C@@]2(CO2)[C@H](O)[C@@H](/C=C/C(C)=C/C[C@@H]2O[C@H](C)[C@H](NC(=O)/C=C\[C@H](C)OC(C)=O)C[C@@H]2C)O1
ANSWER_LABEL: NO
//
STRUCTURE_NOTATION: CC(=O)O[C@@H](C)CCC(=O)N[C@@H]1C[C@H](C)[C@H](C/C=C(C)/C=C/[C@H]2OCC[C@@]3(CO3)[C@@H]2O)O[C@@H]1C
ANSWER_LABEL: NO
//
STRUCTURE_NOTATION: CC(=O)O[C@@H](C)/C=C\C(=O)N[C@@H]1C[C@H](C)[C@H](C/C=C(C)/C=C/[C@H]2OCC[C@@]3(CO3)[C@@H]2O)O[C@@H]1C
ANSWER_LABEL: NO

----------
ASSAY_TEXT: Metabolic stability in mouse liver microsome assessed as parent compound remaining measured at 10 mins
Format: ADME
CONDITIONS: liver microsomes, read-out: Stability
Measured remaining at 10 min, listed per entry for reference.

STRUCTURE_NOTATION: CC(=O)O[C@@H](C)/C=C(/C)C(=O)N[C@@H]1C[C@H](C)[C@H](C/C=C(C)/C=C/[C@H]2OCC[C@@]3(CO3)[C@@H]2O)O[C@@H]1C
remaining at 10 min [%]: 0

STRUCTURE_NOTATION: CO[C@]1(C)C[C@@]2(CO2)[C@H](O)[C@@H](/C=C/C(C)=C/C[C@@H]2O[C@H](C)[C@H](NC(=O)/C=C\[C@H](C)OC(C)=O)C[C@@H]2C)O1
remaining at 10 min [%]: 2.5

STRUCTURE_NOTATION: CC(=O)O[C@@H](C)/C=C/C(=O)N[C@@H]1C[C@H](C)[C@H](C/C=C(C)/C=C/[C@H]2OCC[C@@]3(CO3)[C@@H]2O)O[C@@H]1C
remaining at 10 min [%]: 27

STRUCTURE_NOTATION: CC(=O)O[C@@H](C)CCC(=O)N[C@@H]1C[C@H](C)[C@H](C/C=C(C)/C=C/[C@H]2OCC[C@@]3(CO3)[C@@H]2O)O[C@@H]1C
remaining at 10 min [%]: 5

STRUCTURE_NOTATION: CC(=O)O[C@@H](C)/C=C\C(=O)N[C@@H]1C[C@H](C)[C@H](C/C=C(C)/C=C/[C@H]2OCC[C@@]3(CO3)[C@@H]2O)O[C@@H]1C
remaining at 10 min [%]: 0.3

----------
ASSAY_TEXT: Inhibition of AR-V7 expression in human 22Rv1 cells
Type: functional, cell-based, CWR22R
pIC50: −log10 of the molar value.

STRUCTURE_NOTATION: CO[C@]1(C)C[C@@]2(CO2)[C@H](O)[C@@H](/C=C/C(C)=C/C[C@@H]2O[C@H](C)[C@H](NC(=O)/C=C\[C@H](C)OC(C)=O)C[C@@H]2C)O1
pIC50: 9.22

----------
ASSAY_TEXT: Metabolic stability in human liver microsome assessed as parent compound remaining measured at 60 mins
Assay type: ADME
CONDITIONS: liver microsomes, read-out: Stability
QUANTITY: remaining at 1 h (%)

STRUCTURE_NOTATION: CC(=O)O[C@@H](C)/C=C/C(=O)N[C@@H]1C[C@H](C)[C@H](C/C=C(C)/C=C/[C@H]2OCC[C@@]3(CO3)[C@@H]2O)O[C@@H]1C
QUANTITY: remaining at 1 h
READOUT_NUMBER: 0

STRUCTURE_NOTATION: CC(=O)O[C@@H](C)/C=C(/C)C(=O)N[C@@H]1C[C@H](C)[C@H](C/C=C(C)/C=C/[C@H]2OCC[C@@]3(CO3)[C@@H]2O)O[C@@H]1C
QUANTITY: remaining at 1 h
READOUT_NUMBER: 0

STRUCTURE_NOTATION: CC(=O)O[C@@H](C)CCC(=O)N[C@@H]1C[C@H](C)[C@H](C/C=C(C)/C=C/[C@H]2OCC[C@@]3(CO3)[C@@H]2O)O[C@@H]1C
QUANTITY: remaining at 1 h
READOUT_NUMBER: 0

STRUCTURE_NOTATION: CO[C@]1(C)C[C@@]2(CO2)[C@H](O)[C@@H](/C=C/C(C)=C/C[C@@H]2O[C@H](C)[C@H](NC(=O)/C=C\[C@H](C)OC(C)=O)C[C@@H]2C)O1
QUANTITY: remaining at 1 h
READOUT_NUMBER: 0.5

STRUCTURE_NOTATION: CC(=O)O[C@@H](C)/C=C\C(=O)N[C@@H]1C[C@H](C)[C@H](C/C=C(C)/C=C/[C@H]2OCC[C@@]3(CO3)[C@@H]2O)O[C@@H]1C
QUANTITY: remaining at 1 h
READOUT_NUMBER: 0

----------
ASSAY_TEXT: Apparent permeability of the compound by PAMPA assay
Format: ADME

COMPOUND: CC(=O)O[C@@H](C)/C=C/C(=O)N[C@@H]1C[C@H](C)[C@H](C/C=C(C)/C=C/[C@H]2OCC[C@@]3(CO3)[C@@H]2O)O[C@@H]1C
Papp, ×10⁻⁶ cm/s: 11.3
--
COMPOUND: CC(=O)O[C@@H](C)CCC(=O)N[C@@H]1C[C@H](C)[C@H](C/C=C(C)/C=C/[C@H]2OCC[C@@]3(CO3)[C@@H]2O)O[C@@H]1C
Papp, ×10⁻⁶ cm/s: 8.5
--
COMPOUND: CC(C)NCC(O)COc1cccc2ccccc12 (centres undefined)
Papp, ×10⁻⁶ cm/s: 3.5
--
COMPOUND: CC(=O)O[C@@H](C)/C=C(/C)C(=O)N[C@@H]1C[C@H](C)[C@H](C/C=C(C)/C=C/[C@H]2OCC[C@@]3(CO3)[C@@H]2O)O[C@@H]1C
Papp, ×10⁻⁶ cm/s: 18.5
